# Test system: chicken chorioallantoic membrane (CAM)
# experiment.description: Chicken chorioallantoic membrane (CAM) assay for angiogenesis
# Type: in vivo
# protocol.conditions: 25 nmol; % of control, Mean ± SEM
Here the recorded Vein Diameter (%) is given for each entry.
attribute.measured: Vein Diameter (%)

compound	units.label	reading
CCCCCCCCC(C)CCCCCCCCC(=O)O (stereo not shown)	%	82.9
CC(C)CCCCCCCCCCCCCCCC(=O)O	%	71.6
CC(C)CCCCCCCCCCCCC(=O)O	%	90.8
CCC(C)CCCCCCCCCCC(=O)O (stereo not shown)	%	89.3

###

# Tested on: chicken chorioallantoic membrane (CAM)
# experiment.description: Chicken chorioallantoic membrane (CAM) assay for angiogenesis
# Type: in vivo
# protocol.conditions: 100 nmol
attribute.measured: number of branching capillaries sprouting from the main vessels

compound	reading
CC(C)CCCCCCCCCCCCCCCC(=O)O	reduction
CC(C)CCCCCCCCCCCC(=O)O	reduction
CCCCCCCCC(C)CCCCCCCCC(=O)O (stereo not shown)	reduction
CC(C)CCCCCCCCCCCCC(=O)O	reduction
